Target protein (sequence): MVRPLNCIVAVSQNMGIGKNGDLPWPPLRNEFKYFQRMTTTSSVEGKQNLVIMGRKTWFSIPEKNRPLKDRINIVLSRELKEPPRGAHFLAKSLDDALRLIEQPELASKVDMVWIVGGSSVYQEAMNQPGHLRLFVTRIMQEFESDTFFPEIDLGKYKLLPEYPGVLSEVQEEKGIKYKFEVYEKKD
Could you please report measured IC50 for the items listed next?
One number for each entry, in µM.

compound	measurement unit	IC50
C#CCN(Cc1ccc2nc(N)nc(O)c2c1)c1ccc(C(=O)NC(CCC(=O)O)C(=O)O)cc1Cl (stereo not drawn)	µM	3
C#CCN(Cc1ccc2nc(N)nc(O)c2c1)c1c(Cl)cc(C(=O)NC(CCC(=O)O)C(=O)O)cc1Cl (stereo not drawn)	µM	3

From here, focus on the item given below.
Enquiry: What does the record list as IC50 for C#CCN(Cc1ccc2nc(N)nc(O)c2c1)c1ccc(C(=O)NC(CCC(=O)O)C(=O)O)c(C)c1 (stereo not drawn) ?
Return: 25

* * *

# system tested: Thymidylate synthase (Mus musculus)
# Sequence (P07607 whole entry): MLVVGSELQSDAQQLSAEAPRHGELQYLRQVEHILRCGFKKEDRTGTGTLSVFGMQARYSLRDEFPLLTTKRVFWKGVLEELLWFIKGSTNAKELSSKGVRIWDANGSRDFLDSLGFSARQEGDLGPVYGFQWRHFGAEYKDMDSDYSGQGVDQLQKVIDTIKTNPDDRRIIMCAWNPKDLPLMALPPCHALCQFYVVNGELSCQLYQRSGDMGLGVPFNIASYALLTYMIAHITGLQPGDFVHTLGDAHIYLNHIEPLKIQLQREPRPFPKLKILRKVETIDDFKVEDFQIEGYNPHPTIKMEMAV
# protocol text: In vitro inhibition of L1210 thymidylate synthase with CB3717 as control
measurement type: IC50 (nM)
Answers are plain numbers, in nM.

Below are worked cases with known answers.
molecule	IC50 / nM
C#CCN(Cc1ccc2nc(N)nc(O)c2c1)c1ccc(C(=O)NC(CCC(=O)O)C(=O)O)c(C)c1 (centres undefined)	19
C#CCN(Cc1ccc2nc(N)nc(O)c2c1)c1ccc(C(=O)NC(CCC(=O)O)C(=O)O)c(Cl)c1 (centres undefined)	14
C#CCN(Cc1ccc2nc(N)nc(O)c2c1)c1ccc(C(=O)NC(CCC(=O)O)C(=O)O)cc1Cl (centres undefined)	14.4

// moving on: another record for IC50
Enquiry: Give the measured IC50 of C#CCN(Cc1ccc2nc(N)nc(O)c2c1)c1c(Cl)cc(C(=O)NC(CCC(=O)O)C(=O)O)cc1Cl (centres undefined) .
Return: 14.4
